- tgt: T1, recombinant human activated Factor VII (FVIIa) (human, UniProt P08709 61-212; P08709 213-466, ten glutamate residues of the Gla domain may be gamma-carboxylated)
- T1 construct: chains tethered by a disulfide bond; also called Factor VIIa; rFVIIa
- T1 sequence 1: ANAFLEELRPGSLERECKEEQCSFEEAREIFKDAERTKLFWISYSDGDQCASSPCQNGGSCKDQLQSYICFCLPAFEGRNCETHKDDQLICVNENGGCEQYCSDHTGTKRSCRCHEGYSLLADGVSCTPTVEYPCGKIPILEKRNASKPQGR
- T1 sequence 2: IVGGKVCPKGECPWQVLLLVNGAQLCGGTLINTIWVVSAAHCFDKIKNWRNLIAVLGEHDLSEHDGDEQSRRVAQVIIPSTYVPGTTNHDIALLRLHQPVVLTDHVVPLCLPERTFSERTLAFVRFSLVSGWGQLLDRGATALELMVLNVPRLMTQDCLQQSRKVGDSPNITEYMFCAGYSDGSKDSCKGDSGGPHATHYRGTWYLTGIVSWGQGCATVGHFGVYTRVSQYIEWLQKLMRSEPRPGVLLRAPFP
- assayProtocol: BLI (Fortebio)
Items are presented alongside their recorded pKd.
// field semantics: pKd = negative decimal log of concentration (mol/L)

INSERT INTO results (binder, quantitymeasured, recordedmeasurement) VALUES
  ('VH SEQ ID NO 602 / VL SEQ ID NO 470 (antibody, IgG4, V domains shown, humanized 11F2; IgG4 S228P/kappa) VH: QVQLQESGPGLVKPSQTLSLTCTVSGGSISSDSAWSWIRQPPGKGLEWIGYIQYSGSTNYNPSLKSRVTISVDTSKNQFSLKLSSVTAADTAVYYCARSVNYYGNSFAVGYWGQGTLVTVSS VL: EIVLTQSPATLSLSPGERATLSCRASQGVSDYLHWYQQKPGQAPRLLIKYASQPATGIPARFSGSGSGTDFTLTISSLEPEDFAVYYCQNGHSFPLTFGQGTKLEIK', 'pKd', 7.89);

Give me measured pKd, please, for this binder: VH SEQ ID NO 522 / VL SEQ ID NO 422 (antibody, IgG4, V domains shown, humanized 11F2; IgG4 S228P/kappa) VH: QVQLQESGPGLVEPSQTLSLTCTVSGYSISSDSAWSWIRQPPGKGLEWIGYIQYSGSTNYNPSLKSRVTISRDTSKNQFSLKLSSVTAADTAVYYCARSVNYYGNSFAVGPWGQGTLVTVSS VL: EIVLTQSPATLSLSPGERATLSCRASQGVSDYLAWYQQKPGQAPRLLIKYASQPATGIPARFSGSGSGTDFTLTISSLEPEDFAVYYCQQGHSFPLTFGQGTKLEIK 6.96
